# Assay Summary: AUCt in ICR mouse at 2 mg/kg, po by LC-MS-MS analysis
# Type: ADME, organism-based
# Condition Info: in vivo
Quantity: AUC(0-t) (ng·h/mL)

[[record]]
smi = "COc1cc2c3c(ccc2cc1C#N)O[C@H](c1cc(F)c(F)cc1F)[C@@H](N)C3"
val = 82000


* * *

# Assay Summary: Tmax in ICR mouse at 2 mg/kg, po by LC-MS-MS analysis
# Format: ADME, organism-based
# Condition Info: in vivo
Quantity: Tmax

[[record]]
smi = "COc1cc2c3c(ccc2cc1C#N)O[C@H](c1cc(F)c(F)cc1F)[C@@H](N)C3"
val = "10.2 h"


* * *

# Assay Summary: MRT (0 to infinity) in Sprague-Dawley rat at 1 mg/kg, iv by LC-MS-MS analysis
# Format: ADME, organism-based
# Condition Info: in vivo
Quantity: MRT inf (h)

[[record]]
smi = "COc1cc2c3c(ccc2cc1C#N)O[C@H](c1cc(F)c(F)cc1F)[C@@H](N)C3"
quantity = "MRT inf"
units_of_measure = "h"
val = 15.9


* * *

# Assay Summary: Clearance in Sprague-Dawley rat at 1 mg/kg, iv by LC-MS-MS analysis
# Format: ADME, organism-based
# Condition Info: in vivo
Quantity: clearance

[[record]]
smi = "COc1cc2c3c(ccc2cc1C#N)O[C@H](c1cc(F)c(F)cc1F)[C@@H](N)C3"
val = "1.1 mL/min/kg"


* * *

# Assay Summary: AUC (0 to infinity) in ICR mouse at 2 mg/kg, po by LC-MS-MS analysis
# Type: ADME, organism-based
# Design: dose 2 mg/kg, route oral, time infinity
# Condition Info: in vivo
Quantity: AUC(0-inf) (ng·h/mL)

[[record]]
smi = "COc1cc2c3c(ccc2cc1C#N)O[C@H](c1cc(F)c(F)cc1F)[C@@H](N)C3"
val = 85600


* * *

# Assay Summary: Cmax in Sprague-Dawley rat at 1 mg/kg, iv by LC-MS-MS analysis
# Format: ADME, organism-based
# Design: dose 1 mg/kg, route intravenous
# Condition Info: in vivo
Quantity: Cmax (ng/mL)

[[record]]
smi = "COc1cc2c3c(ccc2cc1C#N)O[C@H](c1cc(F)c(F)cc1F)[C@@H](N)C3"
val = 2010


* * *

# Assay Summary: Terminal half life in ICR mouse at 2 mg/kg, po by LC-MS-MS analysis
# Type: ADME, organism-based
# Condition Info: in vivo, read-out: beta t1/2 (converted)
Quantity: half-life (min)

[[record]]
smi = "COc1cc2c3c(ccc2cc1C#N)O[C@H](c1cc(F)c(F)cc1F)[C@@H](N)C3"
val = 1520


* * *

# Target Entity: Voltage-gated inwardly rectifying potassium channel KCNH2 (Homo sapiens)
# Sequence (Q12809 whole entry): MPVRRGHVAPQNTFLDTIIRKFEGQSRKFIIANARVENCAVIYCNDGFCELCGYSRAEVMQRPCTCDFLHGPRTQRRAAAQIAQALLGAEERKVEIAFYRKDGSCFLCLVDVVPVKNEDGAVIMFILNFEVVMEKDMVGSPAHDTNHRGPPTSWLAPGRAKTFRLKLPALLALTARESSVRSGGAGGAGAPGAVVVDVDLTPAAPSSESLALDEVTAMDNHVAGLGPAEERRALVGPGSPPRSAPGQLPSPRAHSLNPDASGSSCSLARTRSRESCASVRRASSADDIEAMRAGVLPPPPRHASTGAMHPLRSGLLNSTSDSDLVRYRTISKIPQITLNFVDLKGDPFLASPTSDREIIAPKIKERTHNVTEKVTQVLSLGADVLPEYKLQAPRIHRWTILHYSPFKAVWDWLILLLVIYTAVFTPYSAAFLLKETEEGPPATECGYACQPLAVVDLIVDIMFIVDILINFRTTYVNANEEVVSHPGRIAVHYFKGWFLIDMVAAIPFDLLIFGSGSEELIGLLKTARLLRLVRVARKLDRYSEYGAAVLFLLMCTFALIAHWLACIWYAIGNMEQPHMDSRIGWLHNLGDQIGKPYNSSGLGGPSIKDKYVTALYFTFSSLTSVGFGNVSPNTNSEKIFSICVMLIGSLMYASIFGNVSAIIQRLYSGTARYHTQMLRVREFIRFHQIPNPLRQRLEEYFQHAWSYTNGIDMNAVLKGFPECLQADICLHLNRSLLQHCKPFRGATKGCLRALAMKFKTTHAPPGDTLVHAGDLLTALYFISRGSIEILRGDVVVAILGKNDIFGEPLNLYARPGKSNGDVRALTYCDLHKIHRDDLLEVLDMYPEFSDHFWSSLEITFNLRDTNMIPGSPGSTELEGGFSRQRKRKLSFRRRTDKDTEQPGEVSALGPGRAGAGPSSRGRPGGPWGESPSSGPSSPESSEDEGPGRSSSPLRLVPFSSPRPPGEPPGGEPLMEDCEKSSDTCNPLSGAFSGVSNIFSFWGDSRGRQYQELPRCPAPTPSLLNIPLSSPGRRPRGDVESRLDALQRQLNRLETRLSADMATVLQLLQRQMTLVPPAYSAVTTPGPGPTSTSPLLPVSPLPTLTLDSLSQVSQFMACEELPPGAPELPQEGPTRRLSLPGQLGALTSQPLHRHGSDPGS
# Assay Summary: Inhibition of human ERG by patch clamp assay
pIC50: −log10 of the molar value.
Quantity: pIC50

[[record]]
smi = "COc1cc2c3c(ccc2cc1C#N)O[C@H](c1cc(F)c(F)cc1F)[C@@H](N)C3"
target_entity = "Voltage-gated inwardly rectifying potassium channel KCNH2 (Homo sapiens)"
val = "< 4.40"


* * *

# Assay Summary: Oral bioavailability in Sprague-Dawley rat at 2 mg/kg after 24 hrs by LC-MS-MS analysis
# Format: ADME, organism-based
# Condition Info: in vivo
Quantity: bioavailability (%)

[[record]]
smi = "COc1cc2c3c(ccc2cc1C#N)O[C@H](c1cc(F)c(F)cc1F)[C@@H](N)C3"
val = 98.5

